Origin of values: PubChem BioAssay AID2060487

Test system: 997537-175-T-J1-PDC complex spheroid viability
Test: Anticancer human tumor 997537-175-T-J1-PDC patient-derived colon adenocarcinoma cell line growth inhibition [GQUAD]
Conditions: second compound 1 µM; first compound 0.316 µM; stronger effect = lower value
Quantity kind: viability, T/C (%)
Expressed in %, but write only the number.

Answered examples (2):
>  <Compound>
Cc1cccc(N(C)C(=O)C2C(O)CCN2c2nc(C)cc(C(F)(F)F)c2C#N)c1 (stereo not drawn) + Cc1[nH]c2ccc(F)cc2c1-c1nc2c3cccnc3c3ncccc3c2[nH]1

>  <Target or system>
997537-175-T-J1-PDC complex spheroid viability

>  <Uom>
%

>  <Value measured>
108

$$$$
>  <Compound>
Cc1[nH]c2ccccc2c1CCNCc1ccc(/C=C/C(=O)NO)cc1 + Cc1cnc(CNC(=O)c2c(=O)c3ccc(N4CCCN(C)CC4)nc3n3c2sc2ccccc23)cn1

>  <Target or system>
997537-175-T-J1-PDC complex spheroid viability

>  <Uom>
%

>  <Value measured>
53.1

$$$$

Pending compound:
Enquiry: Which viability, T/C value belongs to COc1ncnc(C2CC2)c1-c1ncc2cnn(Cc3ccc(-c4nc(C(F)(F)F)cn4C(C)C)cc3)c2n1 + CN(C)c1ccc(Nc2c3ccc(NC(=O)CCN4CCCC4)cc3nc3cc(NC(=O)CCN4CCCC4)ccc23)cc1 ?
Return: 81.5

###

Tested on: 997537-175-T-J1-PDC complex spheroid viability
Experiment: Anticancer human tumor 997537-175-T-J1-PDC cell line growth inhibition [GQUAD];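 further: spheroids exposed to the agents for 7 days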
Settings: curve of first compound; second compound 0.0316 µM
pIC50: −log10 of the molar value.
Quantity kind: pIC50

Answered examples (3):
>  <Molecule>
CC[C@@]1(O)C(=O)OCc2c1cc1n(c2=O)Cc2cc3c(CN(C)C)c(O)ccc3nc2-1 + Cc1[nH]c2ccc(F)cc2c1-c1nc2c3cccnc3c3ncccc3c2[nH]1

>  <Quantity kind>
pIC50

>  <Value measured>
< 6.50

$$$$
>  <Molecule>
O=c1[nH]cc(F)c(=O)[nH]1 + Cc1cnc(CNC(=O)c2c(=O)c3ccc(N4CCCN(C)CC4)nc3n3c2sc2ccccc23)cn1

>  <Quantity kind>
pIC50

>  <Value measured>
< 5.00

$$$$
>  <Molecule>
CC(C)(O)C1CCC(Nc2ccc3ncc(-c4cccc(C(F)(F)F)c4)n3n2)CC1 (stereo not drawn) + Cc1[nH]c2ccc(F)cc2c1-c1nc2c3cccnc3c3ncccc3c2[nH]1

>  <Quantity kind>
pIC50

>  <Value measured>
< 5.00

$$$$

Enquiry: Which pIC50 value belongs to COc1cccc2c1C(=O)c1c(O)c3c(c(O)c1C2=O)CC(O)(C(=O)CO)CC3OC1CC(N)C(O)C(C)O1 (stereo not drawn) + Cc1[nH]c2ccc(F)cc2c1-c1nc2c3cccnc3c3ncccc3c2[nH]1 ?
Return: < 5.00

Enquiry: Entry to check: O=c1[nH]cc(F)c(=O)[nH]1 + Cc1[nH]c2ccc(F)cc2c1-c1nc2c3cccnc3c3ncccc3c2[nH]1
Return: < 5.00

Enquiry: Entry to check: Cn1ncnc1[C@H]1c2n[nH]c(=O)c3cc(F)cc(c23)N[C@@H]1c1ccc(F)cc1 + CN(C)c1ccc(Nc2c3ccc(NC(=O)CCN4CCCC4)cc3nc3cc(NC(=O)CCN4CCCC4)ccc23)cc1
Return: < 6.50

Enquiry: Entry to check: COc1ncnc(C2CC2)c1-c1ncc2cnn(Cc3ccc(-c4nc(C(F)(F)F)cn4C(C)C)cc3)c2n1 + CN(C)c1ccc(Nc2c3ccc(NC(=O)CCN4CCCC4)cc3nc3cc(NC(=O)CCN4CCCC4)ccc23)cc1
Return: < 5.00

Enquiry: Entry to check: Cc1cccc(N(C)C(=O)C2C(O)CCN2c2nc(C)cc(C(F)(F)F)c2C#N)c1 (stereo not drawn) + Cc1[nH]c2ccc(F)cc2c1-c1nc2c3cccnc3c3ncccc3c2[nH]1
Return: < 5.00
